- System: Malate dehydrogenase and diaphorase
- ASSAY PROTOCOL: Formation of formazan dyes: Malate dehydrogenase and diaphorase, absence of malate (TABLE 9)
- Type: biochemical, pig heart
- CONDITION SUMMARY: Malate dehydrogenase and diaphorase, absence of malate; 0 h
OBSERVABLE: Formation of formazan dyes, absorbance, Means 0 h

- STRUCTURE NOTATION: "Cc1nc(-[n+]2nc(-c3cccc(OCC(=O)O)c3)nn2-c2ccc(S(=O)(=O)[O-])cc2)sc1C"
  VALUE: 0.17
- STRUCTURE NOTATION: "O=[N+]([O-])c1ccc(-[n+]2nc(-c3ccc(S(=O)(=O)[O-])cc3S(=O)(=O)[O-])nn2-c2ccc(I)cc2)cc1.[Na+]"
  VALUE: 0.76
- STRUCTURE NOTATION: "COc1cc([N+](=O)[O-])ccc1-[n+]1nc(-c2ccc(S(=O)(=O)[O-])cc2S(=O)(=O)[O-])nn1-c1ccc([N+](=O)[O-])cc1.[Na+]"
  VALUE: 1.13
